Molecular target: T1, human MSLN-R1-his protein (human, UniProt Q13421 296-390)
T1 construct: Self-made in HEK293E cells; also called human MSLN-R1 protein; hMSLN-R1-his; not shown: His tag
T1 chain: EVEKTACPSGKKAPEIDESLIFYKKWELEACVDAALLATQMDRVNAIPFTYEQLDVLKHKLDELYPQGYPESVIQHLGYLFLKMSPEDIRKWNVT
Experiment: ELISA on coated antigen, antibody 0.0001 nM
As shown below, each of these binders has a reported OD450 value.
measurement.kind: OD450

INSERT INTO assay_data (binder, measurement_kind, result) VALUES
  ('S009-F3.80.22 (antibody, human IgG1, kappa, V domains shown, Human-murine chimeric antibody: murine VH/VL on human IgG1 heavy and kappa light constant regions) VH: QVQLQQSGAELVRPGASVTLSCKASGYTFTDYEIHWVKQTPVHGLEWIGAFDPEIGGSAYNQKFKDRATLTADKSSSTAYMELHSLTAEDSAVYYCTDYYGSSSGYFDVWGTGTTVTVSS VL: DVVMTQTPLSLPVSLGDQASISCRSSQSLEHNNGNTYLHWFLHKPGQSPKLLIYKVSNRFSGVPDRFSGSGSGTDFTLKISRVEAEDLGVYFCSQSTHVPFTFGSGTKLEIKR', 'OD450', '0.06 OD450'),
  ('S009-F3.7.3 (antibody, human IgG1, kappa, V domains shown, Human-murine chimeric antibody: murine VH/VL on human IgG1 heavy and kappa light constant regions) VH: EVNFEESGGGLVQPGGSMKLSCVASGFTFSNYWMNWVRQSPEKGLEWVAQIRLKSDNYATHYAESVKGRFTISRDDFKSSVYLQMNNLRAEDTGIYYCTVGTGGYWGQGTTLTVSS VL: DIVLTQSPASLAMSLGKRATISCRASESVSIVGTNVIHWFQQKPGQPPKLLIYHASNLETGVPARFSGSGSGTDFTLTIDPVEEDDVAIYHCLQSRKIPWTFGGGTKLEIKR', 'OD450', '0.07 OD450'),
  ('S009-F3.38.10 (antibody, human IgG1, kappa, V domains shown, Human-murine chimeric antibody: murine VH/VL on human IgG1 heavy and kappa light constant regions) VH: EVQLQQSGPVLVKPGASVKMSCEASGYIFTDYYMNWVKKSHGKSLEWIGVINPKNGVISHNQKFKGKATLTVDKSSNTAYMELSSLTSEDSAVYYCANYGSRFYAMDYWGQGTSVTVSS VL: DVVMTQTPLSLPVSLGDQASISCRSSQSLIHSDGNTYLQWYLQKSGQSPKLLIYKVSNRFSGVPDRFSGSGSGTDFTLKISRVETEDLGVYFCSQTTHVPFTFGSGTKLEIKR', 'OD450', '0.07 OD450');
